Measured EC50 of individual entries
testedSystem: T1, recombinant human NMES1 protein (Normal Mucosa of Esophagus Specific 1) (human, UniProt Q9C002 1-83, limits assumed)
T1 construct: also called rhNMES1; recombinant NMES1 protein
T1 sequence (Q9C002 whole entry, form in doubt): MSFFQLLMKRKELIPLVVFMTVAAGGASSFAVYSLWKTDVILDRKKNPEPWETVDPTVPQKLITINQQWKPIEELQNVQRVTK
experimentNotes: titration ELISA, plate coated with recombinant NMES1 (1 µg/mL), anti-human IgG Fc HRP detection
Field: numeric (nM). Do not append units.

NMES-1 anti-NMES1 monoclonal antibody (antibody, V domains shown, also called NM-1; NMES1-1) VH: QVQLVQSGGGVVQPGRSLRLSCAASGFTFSSYAMHWVRQAPGKGLEWVAVISYDGSNKYYADSVKGRFTISRDNSKNTLYLQMNSLRAEDTAVYYCARLSRFGDESLKDPDYWGQGTLVTVSS VL: DIVMTQSPLSLPVTLGQPASISCRSSQSLVHSDGNTYLNWFQQRPGQSPRRLIYKVSNRDSGVPDRFSGSGSGTDFTLKISRVEAEDVGVYYCMQGAHWPPTFGPGTKLEIK :: 2.98

// below: EC50 requested for another binder
input: Return reported EC50; argument: NMES-3 anti-NMES1 monoclonal antibody (antibody, IgG1, V domains shown, also called NM-3; NMES1-3) VH: EVQLLQSGGGVVRPGGSLRLSCAASGFTFDDYGMSWVRQAPGKGLEWVSGINWNGGSTGYADSVKGRFTISRDNAKNSLYLQMNSLRAEDTALYYCARASMVRGVYAFDIWGQGTMVIVSS VL: DVQMTQSPSSLSASIGDRVTITCRASQSIGSYLNWYQQRPGKAPKLLIYSASSLQSGVPSRFSGSGSRSDFTLTIASLQPEDFATYYCQQSYSGPYTFGQGTKVDIK
output: 40.6

FYI, the data here is from patent US20210371508A1.
